- method-notes: gradient 5% acetonitrile 3 min, to 50% in 2 min, to 85% in 15 min, held 3 min, 100 µL/min
- measurement-conditions: column: Zorbax Extend-C18 2.1 x 50 mm; eluents: water / acetonitrile, 0.1% formic acid
measured-property: RP-LC retention time

Examples with their reported RP-LC retention time follow.
{"compound": "CCN1c2ccc(C)cc2C(=O)NC12CCN(C(=O)c1cccc(OC)c1)CC2", "RP-LC retention time": "805 s"}
{"compound": "CCc1cc(=O)n(CC(=O)Nc2cccc(Br)c2)c(N2CCOCC2)n1", "RP-LC retention time": "831 s"}
{"compound": "COCCNC(=O)C1CN(C(=O)c2ccco2)CC1c1ccc(OC)cc1OC (stereo not drawn)", "RP-LC retention time": "922 s"}
{"compound": "CCC1(C(=O)Nc2ccc(OC)cc2)CCCCC(=O)N1 (stereo not drawn)", "RP-LC retention time": "666 s"}
{"compound": "Cc1cccc(-c2noc(Cc3nnc(-c4cc(C)cc(C)c4)o3)n2)c1", "RP-LC retention time": "842 s"}

Q. Need RP-LC retention time, item CCn1c(=O)n(CC)c2cc(N3CCCC3)c(NC(=O)NCc3ccc(OC)cc3)cc21
A. 643 s

Q. Bench note: what RP-LC retention time did Cc1ccc(C)c(N2CCN(Cc3nc4nc(C)cc(N5CCN(C)CC5)n4n3)CC2)c1 show?
A. 593 s

Q. Quick one: RP-LC retention time for O=C(c1ccc(OCC2CCCN(C(=O)c3ccco3)C2)cc1)N1CCOCC1 (stereo not drawn) ?
A. 712 s

###

- method-notes: gradient 5% acetonitrile 3 min, to 50% in 2 min, to 85% in 15 min, held 3 min, 100 µL/min
- measurement-conditions: column: Zorbax Extend-C18 2.1 x 50 mm; eluents: water / acetonitrile, 0.1% formic acid
// RP-LC retention time lookup, one value per entry
Express your answer in s, writing the number without its unit.

Recorded results for 4 molecules are shown here.
{"molecule": "CC(C)NC(=O)N1CCc2c(c(-c3nc(-c4ccccc4)no3)nn2C)C1", "measured-property": "RP-LC retention time", "units-text": "s", "recorded-value": 820}
{"molecule": "CCOC(=O)C1CCN(C(=O)Cn2c(=O)c3nnc(C)n3c3ncccc32)CC1", "measured-property": "RP-LC retention time", "units-text": "s", "recorded-value": 780}
{"molecule": "CCN1CCN(CCCNC(=O)c2ccc3nc(C(C)C)oc3c2)CC1", "measured-property": "RP-LC retention time", "units-text": "s", "recorded-value": 667}
{"molecule": "Cc1c(C(=O)N2CCOCC2)cnn1-c1cc(-c2nc(C3CC3)no2)ccn1", "measured-property": "RP-LC retention time", "units-text": "s", "recorded-value": 797}

# evaluate next
Q. Endpoint output: RP-LC retention time of Cc1ccc(-c2nnc(N3CCC(C(=O)NCc4ccc5c(c4)OCO5)CC3)o2)cc1 . Value?
A. 838

###

Entries and their RP-LC retention time values follow.
- method-notes: gradient 5% acetonitrile 3 min, to 50% in 2 min, to 85% in 15 min, held 3 min, 100 µL/min
- measurement-conditions: column: Zorbax Extend-C18 2.1 x 50 mm; eluents: water / acetonitrile, 0.1% formic acid
Numbers only; they are read as s.

{"compound": "CCn1cnnc1C1CCCCN1C(=O)CCc1c[nH]c2ccccc12 (stereo not given)", "units-text": "s", "recorded-value": 697}
{"compound": "C=CCn1nnnc1SCC(=O)Nc1ccc(C(=O)OC)cc1", "units-text": "s", "recorded-value": 701}
{"compound": "O=C(NC1CCCCCCC1)C1CCN(C(=O)c2ncn3c2COC(c2ccccc2)C3)CC1 (stereo not given)", "units-text": "s", "recorded-value": 885}
{"compound": "COc1ccc(C(=O)N2CCC3(CC2)NC(=O)c2cc(Cl)ccc2N3C)cc1OC", "units-text": "s", "recorded-value": 742}
{"compound": "CCC(C)Nc1nc2c(c(=O)n(C)c(=O)n2C)n1C (stereo not given)", "units-text": "s", "recorded-value": 742}
{"compound": "COCC(=O)Nc1nnc(SCc2nnc(-c3ccc4c(c3)OCO4)o2)s1", "units-text": "s", "recorded-value": 717}
{"compound": "Cn1nc(C(=O)N2CCC(Nc3cccnc3)C2)c2ccccc21 (stereo not given)", "units-text": "s", "recorded-value": 781}
{"compound": "CCS(=O)(=O)Nc1ccc(-c2noc(C(C)NS(=O)(=O)c3ccc(C)cc3)n2)cc1 (stereo not given)", "units-text": "s", "recorded-value": 836}

Q. Any idea what RP-LC retention time was measured for CCn1c(=O)sc2cc(S(=O)(=O)N3CCC(C(=O)Nc4nc(C)cs4)CC3)ccc21 ?
A. 827

Q. RP-LC retention time lookup needed for CNC(=O)c1c(NC(=O)c2cccc(Cl)c2)sc2c1CCC2 , thanks.
A. 1160

###

- method-notes: gradient 5% acetonitrile 3 min, to 50% in 2 min, to 85% in 15 min, held 3 min, 100 µL/min
- measurement-conditions: column: Zorbax Extend-C18 2.1 x 50 mm; eluents: water / acetonitrile, 0.1% formic acid
measured-property: RP-LC retention time (s)
Provide only the numeric value, understood in s.

Worked set:
{"molecule": "CN(CC1CCOC1)C(=O)c1ccc(F)cc1Cl (stereo not drawn)", "units-text": "s", "RP-LC retention time": 704}
{"molecule": "NC(=O)Cn1cnc2c(-c3ccc(F)cc3)nsc2c1=O", "units-text": "s", "RP-LC retention time": 713}

Field: next molecule
Q. What does the record list as RP-LC retention time for Cn1cc(-c2nc(C(=O)NCc3ccc(F)cc3Cl)cs2)c2cccnc21 ?
A. 1010

###

- method-notes: gradient 5% acetonitrile 3 min, to 50% in 2 min, to 85% in 15 min, held 3 min, 100 µL/min
- measurement-conditions: column: Zorbax Extend-C18 2.1 x 50 mm; eluents: water / acetonitrile, 0.1% formic acid
Note to self: RP-LC retention time under 700 s means T, ties and anything higher get F.

{"compound": "CCc1nc2cc(-c3noc(-c4ccncc4)n3)ccc2o1", "class-assignment": "F"}
{"compound": "Cc1ccc2c(=O)c3cccc(CC(=O)O)c3oc2c1C", "class-assignment": "F"}
{"compound": "CCn1ccc(C(=O)Nc2c3c(nn2C)CCC3)n1", "class-assignment": "T"}
{"compound": "Cn1c(=O)cnc2ccc(N3CCOCC3)nc21", "class-assignment": "T"}
{"compound": "COc1cc(-c2noc(Cc3nnc(-c4ccc(C)c(C)c4)o3)n2)cc(OC)c1OC", "class-assignment": "F"}

# ---- query compound ----
Q. Hi there! Is RP-LC retention time for O=C1CC(c2noc(-c3cc(F)cc(F)c3)n2)CN1c1ccc(F)cc1 (centres undefined) below 700 s, do you know?
A. F

###

- method-notes: gradient 5% acetonitrile 3 min, to 50% in 2 min, to 85% in 15 min, held 3 min, 100 µL/min
- measurement-conditions: column: Zorbax Extend-C18 2.1 x 50 mm; eluents: water / acetonitrile, 0.1% formic acid
Catalogue of RP-LC retention time readings, one per entry.
Field: numeric (s). Do not append units.

Field: example entries. Status: answers known.
{"molecule": "Cc1ccc(-c2noc(C3CCCN3S(=O)(=O)c3ccc(C(C)C)cc3)n2)cc1 (configuration not stated)", "units-text": "s", "recorded-value": 1310}
{"molecule": "CCn1cccc1-c1nc(C)c(C(=O)NCCc2ccc(OC)c(OC)c2)s1", "units-text": "s", "recorded-value": 998}
{"molecule": "CCCn1c(=O)sc2cc(S(=O)(=O)N3CCC(C(=O)Nc4ccccc4OC)CC3)ccc21", "units-text": "s", "recorded-value": 1000}
{"molecule": "Cc1ccc(-c2ccc(-n3nc(C)c(S(=O)(=O)N4CCOCC4)c3C)nn2)cc1C", "units-text": "s", "recorded-value": 1060}

Q. I am curious: what RP-LC retention time value has been reported for CSc1cccc(NC(=O)Cn2c(=O)c(CCC(=O)NCC(C)C)nc3ccccc32)c1 ?
A. 846

Q. Entry COc1cccc(CNC(=O)Nc2cccc(-c3ccc(N4CCOCC4)nn3)c2)c1 has what RP-LC retention time?
A. 670

Q. Can you share its RP-LC retention time? I mean this molecule: Cc1cccc(CNC(=O)CN2C(=O)CCc3cc(Br)ccc32)c1
A. 889

Q. Quick one: RP-LC retention time for COc1ccc(Cc2nc(-c3cccc(-c4ccn[nH]4)c3)no2)cc1OC ?
A. 830

Q. For Cc1cc(CN2CCc3nn(Cc4ccccc4)c(=O)n3CC2)n(C)n1 , what is its reported RP-LC retention time?
A. 611

Q. Using the record for O=C(c1cn(-c2cc(N3CCSCC3)ncn2)cn1)N1CCN(C2CCCCC2)CC1 , report its RP-LC retention time.
A. 635

Q. Suppose we examine the molecule O=C(CSc1ccc(N2CCCC(C(=O)NC3CC3)C2)nn1)NCc1cc(F)cc(F)c1 (configuration not stated) ; what RP-LC retention time value has been reported?
A. 642
